assay: Selectivity ratio of IC50 for cynomolgus monkey CYP11B1 expressed in human G401 cells to IC50 for cynomolgus monkey CYP11B2 expressed in human G401 cells; assay type: cell-based
PARAMETER MEASURED: Ratio IC50

// recorded Ratio IC50 for `CC(=O)N1CC[C@@H](Oc2cncc(N3C(=O)c4ccc(Cl)cc4C3(C)C)c2)C1` : 643

// recorded Ratio IC50 for `CC(=O)NCc1cncc(N2C(=O)c3ccc(Cl)cc3C2(C)C)c1` : 333

// recorded Ratio IC50 for `CC1(C)c2cc(Cl)ccc2C(=O)N1c1cncc(OC2CN(C(=O)c3ncccc3Cl)C2)c1` : 1120

// recorded Ratio IC50 for `CCS(=O)(=O)N1CC(Oc2cncc(N3C(=O)c4ccc(Cl)cc4C3(C)C)c2)C1` : 664

// recorded Ratio IC50 for `Cc1cccnc1C(=O)NCc1cncc(N2C(=O)c3ccc(Cl)cc3C2(C)C)c1` : 191

// recorded Ratio IC50 for `CCS(=O)(=O)N1CCC(c2cncc(N3C(=O)c4ccc(Cl)cc4C3(C)C)c2)CC1` : 430

// recorded Ratio IC50 for `C[C@@H](NS(C)(=O)=O)c1cncc(N2C(=O)c3ccc(Cl)cc3C2(C)C)c1` : 93

// recorded Ratio IC50 for `Cc1ccncc1C(=O)N1CC(Oc2cncc(N3C(=O)c4ccc(Cl)cc4C3(C)C)c2)C1` : 1770

// recorded Ratio IC50 for `CC(=O)N1CCC(c2cncc(N3C(=O)c4ccc(Cl)cc4C3(C)C)c2)CC1` : 466

// recorded Ratio IC50 for `CC(=O)N1CC[C@H](Oc2cncc(N3C(=O)c4ccc(Cl)cc4C3(C)C)c2)C1` : 193

// recorded Ratio IC50 for `CC1(C)c2cc(Cl)ccc2C(=O)N1c1cncc(N2CCN(S(C)(=O)=O)CC2)c1` : 170

// recorded Ratio IC50 for `CC(=O)N1CCN(c2cncc(N3C(=O)c4ccc(Cl)cc4C3(C)C)c2)CC1` : 236

// recorded Ratio IC50 for `CCS(=O)(=O)N1CC2(CN(c3cncc(N4C(=O)c5ccc(Cl)cc5C4(C)C)c3)C2)C1` : 19700

// recorded Ratio IC50 for `CC1(C)c2cc(Cl)ccc2C(=O)N1c1cncc(CNS(C)(=O)=O)c1` : 179

// recorded Ratio IC50 for `CC(=O)N1CCC(Oc2cncc(N3C(=O)c4ccc(Cl)cc4C3(C)C)c2)CC1` : 225

---

assay: Selectivity ratio of IC50 for human CYP11B1 expressed in human renal leiomyoblastoma cells harboring FDXR/FDX to IC50 for human CYP11B2 expressed in human renal leiomyoblastoma cells harboring FDXR/FDX; type: cell-based
PARAMETER MEASURED: Ratio IC50

// recorded Ratio IC50 for `CCS(=O)(=O)NCc1cncc(N2C(=O)c3ccc(Cl)cc3C2(C)C)c1` : 31

// recorded Ratio IC50 for `CCC(=O)N[C@@H]1CCCc2c1cncc2N1Cc2cc(Cl)ccc2C1=O` : 186

// recorded Ratio IC50 for `O=C1c2cc(F)c(Cl)cc2CCN1c1cccnc1` : 34

// recorded Ratio IC50 for `CC(=O)N1CC2(C1)CN(c1cncc(N3C(=O)c4ccc(Cl)cc4C3(C)C)c1)C2` : 640

// recorded Ratio IC50 for `CC1(C)CN(c2cccnc2)C(=O)c2ccc(Cl)cc21` : > 7

// recorded Ratio IC50 for CC1Cc2cc(Cl)ccc2C(=O)N1c1cccnc1 (stereo not given) : > 13

// recorded Ratio IC50 for `CCC(=O)N[C@@H]1CCCc2c1cncc2N1C(=O)c2ccc(Cl)cc2[C@@H]1CC` : 29

// recorded Ratio IC50 for `Cc1cccnc1C(=O)NCc1cncc(N2C(=O)c3ccc(Cl)cc3C2(C)C)c1` : 89

// recorded Ratio IC50 for `CC(=O)N[C@@H]1CCCc2c1cncc2N1C(=O)c2ccc(Cl)cc2[C@H]1C` : 40

// recorded Ratio IC50 for `CCC(=O)N[C@@H]1CCCc2c1cncc2N1C(=O)c2ccc(Cl)cc2[C@H]1CC` : 114
